- Test system: THRa homodimer (NR concentration 90 nM)
- ASSAY_PROTOCOL: PBM binding z-score (relative to random genomic background probes); higher = stronger binding; sequences stand for … in GC…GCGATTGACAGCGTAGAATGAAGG
PBM binding z-score of 0.4 or higher: MET. Under 0.4: NOT MET.

Q: For this sequence, is measured PBM binding z-score 0.4 or higher? TAGCCTAGGTCTTGCGGGCCAGTATAGTGTCGGC
A: NOT MET

Q: For this sequence, is measured PBM binding z-score 0.4 or higher? CCGAGTAGGTTATGCGGCATTCAGGCAACGGTGA
A: NOT MET

Q: For this sequence, is measured PBM binding z-score 0.4 or higher? TGAATAAGGTTATAAGATCAGGGAACGTTGCAAA
A: MET

Q: For this sequence, is measured PBM binding z-score 0.4 or higher? ATATGTAGGTTAAGGGTCAATCAGGTTGGTTCGC
A: MET

Q: For this sequence, is measured PBM binding z-score 0.4 or higher? TCTTATAGATCAAGCAGGTTAAGAAAGCCTGAGT
A: NOT MET

Q: For this sequence, is measured PBM binding z-score 0.4 or higher? CGTCCAAGGTCAGAGAGGCCAGTGAATGCCGAGT
A: MET

Q: For this sequence, is measured PBM binding z-score 0.4 or higher? CCTTCTAGGTCAATGGTCAGCTAAAGCAGCTCGC
A: MET

Q: For this sequence, is measured PBM binding z-score 0.4 or higher? CATACAGGGTCAGCTAGGCCAGATTAGGGACGGC
A: MET

Q: For this sequence, is measured PBM binding z-score 0.4 or higher? GCAGATAGGTGAAACGCAGGTAACTCAGGGTGGC
A: NOT MET

Q: For this sequence, is measured PBM binding z-score 0.4 or higher? CTCGAAAGGGCGGTTGAGGTGAGTATACGGATAA
A: MET

Q: For this sequence, is measured PBM binding z-score 0.4 or higher? TGACCAAGGTGAAGGTCGTTGATCCCTCTGTAGA
A: MET

Q: For this sequence, is measured PBM binding z-score 0.4 or higher? ATATGTAGGGTAGCTGGGGTCATTCAGACTAGGC
A: MET

Q: For this sequence, is measured PBM binding z-score 0.4 or higher? CATAGTTGGTCAGGAGGTCACACACCGGATATGA
A: MET

Q: For this sequence, is measured PBM binding z-score 0.4 or higher? TCAGACAGGTGAAAGTAACTCAGGTACGCAGTCG
A: NOT MET

Q: For this sequence, is measured PBM binding z-score 0.4 or higher? TATCCTAGGTCATGCGGGCCAGTATAGTGTCGGC
A: MET

Q: For this sequence, is measured PBM binding z-score 0.4 or higher? AGAATGAGGTTACCAAAGATCAAGGAAACGCTTG
A: MET

Q: For this sequence, is measured PBM binding z-score 0.4 or higher? GCGACTGGGGCATCAGCAGCTTACCATAACTTAA
A: NOT MET

Q: For this sequence, is measured PBM binding z-score 0.4 or higher? GGAACGAGGGCATTCGAGTTGCTAGCATGGCGAT
A: NOT MET

Q: For this sequence, is measured PBM binding z-score 0.4 or higher? TAGCCTAGGTCATGGGCAAGTATACCACGCGAAC
A: MET

Q: For this sequence, is measured PBM binding z-score 0.4 or higher? ACAGACAGGTGAGGAAGGTAACTCAGGCTATCAT
A: NOT MET

Q: For this sequence, is measured PBM binding z-score 0.4 or higher? CAAACTAGGTCACCGGTAGGTCAAAGTCCGCATG
A: MET

Q: For this sequence, is measured PBM binding z-score 0.4 or higher? CGAACTAGGTCTTCCAGGACAGTGAATACATTGA
A: MET

Q: For this sequence, is measured PBM binding z-score 0.4 or higher? ATCGAAAGGTCGACTAGGTGAGTATACACCGTTT
A: NOT MET

Q: For this sequence, is measured PBM binding z-score 0.4 or higher? AGAATGAGGTTAACATCAGGGAAACAGAATACAT
A: MET

Q: For this sequence, is measured PBM binding z-score 0.4 or higher? CCGACTGGGGCAATGTTACCATAACGCACAGCCA
A: NOT MET

###

- System: PPARa:RXRa (NR concentration 270 nM, RXRa partner concentration 90 nM)
- ASSAY_PROTOCOL: PBM binding z-score (relative to random genomic background probes); higher = stronger binding; sequences stand for … in GC…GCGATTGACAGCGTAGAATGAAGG
PBM binding z-score of 2 or higher: 1.0. Under 2: 0.0.

Q: For this sequence, is measured PBM binding z-score 2 or higher? GCAGACAGGTGATACGCAGGTAACTCAGGGTGGC
A: 0.0

Q: For this sequence, is measured PBM binding z-score 2 or higher? ATATGTAGGTTATCAGGTCATTCAGTTTGCGCAT
A: 1.0

Q: For this sequence, is measured PBM binding z-score 2 or higher? TAGCCTAGGTCAGATCTGGCCAGTATACGCTATA
A: 0.0

Q: For this sequence, is measured PBM binding z-score 2 or higher? CGTCCAAGATCAAGGTCAGTGAAAGAGACTCGAA
A: 1.0

Q: For this sequence, is measured PBM binding z-score 2 or higher? GCTGCTAGGTCAGGTTAGTCAGCTAACGGGTACG
A: 0.0

Q: For this sequence, is measured PBM binding z-score 2 or higher? CAAACTAGGTCAAGAGGACAAAGTCCGCTTCCCG
A: 1.0

Q: For this sequence, is measured PBM binding z-score 2 or higher? AGTCAAAGTTCACCTAGGTAACGTAAGATATGCT
A: 1.0

Q: For this sequence, is measured PBM binding z-score 2 or higher? CCAGACAAGTGAAAGGTAACTCAGTCTGGTACGC
A: 0.0

Q: For this sequence, is measured PBM binding z-score 2 or higher? CCAGACAGGTGAGAAGGTAACTCAACCTCGATTA
A: 0.0

Q: For this sequence, is measured PBM binding z-score 2 or higher? TCTTGGAGATCAAAGGTTAAGAAAGCCGAAGCCT
A: 1.0

Q: For this sequence, is measured PBM binding z-score 2 or higher? ACAGACAGGTGATGAAGGTAATTCAGGCTATCAT
A: 0.0

Q: For this sequence, is measured PBM binding z-score 2 or higher? TAGCCTAGGTCATTCAGGGGCCAGTACAGAAAGC
A: 1.0

Q: For this sequence, is measured PBM binding z-score 2 or higher? CGTACTGGGCCACGAAAGGTCATTGATTCAGTGA
A: 1.0

Q: For this sequence, is measured PBM binding z-score 2 or higher? TCATATAGGTAATACAGATGAAAGTCGGCATCTA
A: 0.0

Q: For this sequence, is measured PBM binding z-score 2 or higher? CCTATTAGTTGACCATAAGGGCAACCAAAGCTCG
A: 0.0

Q: For this sequence, is measured PBM binding z-score 2 or higher? TGAATGAGGTTGTAAGATCAGGGAACGTTGCAAA
A: 0.0

Q: For this sequence, is measured PBM binding z-score 2 or higher? CGAACGAGGGTATGAGTTGATAGCAAATGCCGAT
A: 0.0

Q: For this sequence, is measured PBM binding z-score 2 or higher? CCTTACAGGTCACTGACAGGTTATAGCATTTGGA
A: 1.0

Q: For this sequence, is measured PBM binding z-score 2 or higher? TCGAGTAGGTTAGGGGCATTCACAATGGCGTCGA
A: 0.0

Q: For this sequence, is measured PBM binding z-score 2 or higher? TCATATAGGTAAACAAGTGAAAGTCCGTAAGTTA
A: 0.0

Q: For this sequence, is measured PBM binding z-score 2 or higher? TCGAGTAGGTTACCAATGGGGCTTTCAGCTTTCT
A: 0.0

Q: For this sequence, is measured PBM binding z-score 2 or higher? AACTCTAGGTAACAAGTTCAGTGAAAGAGAGGAC
A: 0.0

Q: For this sequence, is measured PBM binding z-score 2 or higher? TAAATGAGGTTAAAGATCAGGGAACGTGGCGTCG
A: 1.0

Q: For this sequence, is measured PBM binding z-score 2 or higher? GCTGCTAGGTCAACTAATGGTCAGCTAAAGCTCG
A: 1.0

Q: For this sequence, is measured PBM binding z-score 2 or higher? GCTGGTAGATCAAGGTTAAGAAAGACTAAGCTAA
A: 0.0

Q: For this sequence, is measured PBM binding z-score 2 or higher? AGAACTAGGGCACGCTGAGTTGATAGCAGAGTAG
A: 1.0
